test system: Bovine cardiac myofibrils; experiment: In vitro model of dose-dependent myofibril ATPase modulation (AC1.4, pyruvate kinase/lactate dehydrogenase-coupled ATPase assay at pCa25); assay type: biochemical; settings: concentration at which ATPase activity was 1.4-fold higher than the bottom of the dose curve, mean of a minimum of two independent tests
Item-by-item account of AC1.4
Answer as a quantity: numeral, then unit.

Examples with their reported AC1.4 follow.
{"columns": ["smiles-record", "result"],
 "data": [
  ["O=C(N[C@@H](c1cc(F)c(Cl)cc1F)C1COC1)[C@H]1C[C@H]2C[C@H]2N1C(=O)c1ccnc(C(F)(F)F)c1", "0.2934 µM"],
  ["C[C@H](NC(=O)[C@H]1CCCN1C(=O)[C@H]1CCCN(S(=O)(=O)N2CC(C#N)C2)C1)c1ccc(Cl)cc1", "9.622 µM"],
  ["O=C(N[C@@H](c1cc(F)c(Cl)cc1F)C1CC1)[C@H]1C[C@H]2C[C@H]2N1C(=O)c1cccc(C(F)(F)F)n1", "4.708 µM"],
  ["CN(C)S(=O)(=O)c1cccc(C(=O)N2CCC[C@@H]2C(=O)N[C@H](CO)c2ccc(Cl)c(F)c2)c1", "4.1045 µM"],
  ["N#CC1CN(S(=O)(=O)c2cccc(C(=O)N3CCC[C@@H]3C(=O)NCc3ccc(Cl)c(F)c3)c2)C1", "0.0744 µM"],
  ["C[C@@H](NC(=O)[C@H]1CCCN1C(=O)[C@@H]1CN(S(=O)(=O)N2CC(C#N)C2)CCN1)c1ccc(Cl)cc1F", "0.6139 µM"]
]}

Req: Could you share which AC1.4 value was measured for `CS(=O)(=O)c1ccc(N2CC(C#N)C2)c(C(=O)N2CCC[C@@H]2C(=O)N[C@@H](c2ccc(C(F)(F)F)cc2F)C2CC2)c1` ?
Resp: 2.8425 µM

Req: Could you share which AC1.4 value was measured for `CS(=O)(=O)c1cccc(C(=O)N2CC3(CCC3)[C@@H]2C(=O)N[C@@H](c2ccc(C(F)(F)F)cc2F)C2CC2)c1` ?
Resp: 1.866 µM

Req: Could you share which AC1.4 value was measured for `O=C(NCc1ccc(C(F)(F)F)cc1)[C@H]1CCCN1C(=O)[C@H]1CCCN(S(=O)(=O)N2CC(C(F)(F)F)C2)C1` ?
Resp: 1.257 µM

Req: Could you share which AC1.4 value was measured for `Cc1c(CNC(=O)[C@H]2CCCN2C(=O)[C@H]2CCCN(S(=O)(=O)N3CC(C#N)C3)C2)cccc1C(F)(F)F` ?
Resp: 0.2465 µM

* * *

Item-by-item account of AC1.4
system: Bovine cardiac myofibrils; assay: In vitro model of dose-dependent myofibril ATPase modulation (AC1.4, pyruvate kinase/lactate dehydrogenase-coupled ATPase assay at pCa25); assay type: biochemical; conditions: concentration at which ATPase activity was 1.4-fold higher than the bottom of the dose curve, mean of a minimum of two independent tests
Quick reminder: number only, in µM, skip the unit.

{"columns": ["molecule", "AC1.4 / µM"],
 "data": [
  ["N#CC1CN(S(=O)(=O)c2cccc(C(=O)N3CCC[C@@H]3C(=O)NCc3ccc(C4CC4)cc3)c2)C1 [Example 283]", 0.7288]
]}

Req: Could you share which AC1.4 value was measured for O=C(N[C@@H](c1cc(F)c(Cl)cc1F)C1COC1)[C@H]1C[C@H]2C[C@H]2N1C(=O)c1cc(C(F)(F)F)ccn1 [Example 233] ?
Resp: 0.5241

Req: Could you share which AC1.4 value was measured for N#CC1CN(S(=O)(=O)N2CCC[C@H](C(=O)N3CCC[C@@H]3C(=O)N[C@H](c3ccc(C(F)(F)F)cc3)C3CC3)C2)C1 [Example 107] ?
Resp: 0.1642

Req: Could you share which AC1.4 value was measured for N#CC1(F)CN(S(=O)(=O)N2CCC[C@H](C(=O)N3CCC[C@@H]3C(=O)NCc3ccc(C(F)(F)F)cc3F)C2)C1 [Example 327] ?
Resp: 0.8893

Req: Could you share which AC1.4 value was measured for Cc1cc(C(C)NC(=O)[C@H]2CCCN2C(=O)[C@H]2CCCN(S(=O)(=O)N3CC(C#N)C3)C2)ccc1F (stereo partly shown) [Example 592] ?
Resp: 3.477

Req: Could you share which AC1.4 value was measured for N#CC1CN(S(=O)(=O)N2CCC[C@H](C(=O)N3CCC[C@@H]3C(=O)NCc3cccc(F)c3Cl)C2)C1 [Example 418] ?
Resp: 1.5305
